Every entry's value here was drawn from the Human Domainome abundance scans (Beltran et al. 2025).

B1: Ankyrin repeat and SAM domain-containing protein 6, residues 774 to 836; numbered along this chain, Q68DC2 (parent)
chain: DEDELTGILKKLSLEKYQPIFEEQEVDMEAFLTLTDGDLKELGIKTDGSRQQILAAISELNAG

Variants of: B1
Experiment Summary: abundance fitness (aPCA) (normalised: wild type 0, dead -1); higher = more abundant; growth selection in yeast, the domain comes from the species named
Setup Conditions: Homo sapiens
Please note: Met applies when abundance fitness is -0.2 or greater, and Not met applies otherwise.

Changes: A55G
Class Name: Met

Changes: M28C
Class Name: Not met

Changes: D47K
Class Name: Met

Changes: E29D
Class Name: Met

Changes: I57S
Class Name: Not met

Changes: L60G
Class Name: Not met

Changes: L5Q
Class Name: Not met

Changes: E59Q
Class Name: Met

Changes: G37C
Class Name: Not met

Changes: E4Q
Class Name: Not met

Changes: K11A
Class Name: Met

Changes: K16Q
Class Name: Not met

Changes: E2W
Class Name: Met

Changes: L9G
Class Name: Not met

Changes: E29Y
Class Name: Not met

Changes: K45A
Class Name: Met

Changes: I20S
Class Name: Not met

Changes: L5A
Class Name: Not met

Changes: L54W
Class Name: Not met

Changes: Q18A
Class Name: Met

Changes: K16P
Class Name: Met

Changes: D36I
Class Name: Not met

Changes: L54K
Class Name: Not met

Changes: A56P
Class Name: Not met

Changes: A30K
Class Name: Met

Changes: I53A
Class Name: Not met

Changes: I8W
Class Name: Met

Changes: D27T
Class Name: Met

Changes: K10G
Class Name: Not met

Changes: E25N
Class Name: Met

Changes: A62F
Class Name: Not met

Changes: Y17L
Class Name: Met

Changes: F31S
Class Name: Not met

Changes: A30W
Class Name: Not met

Changes: E59S
Class Name: Met

Changes: I44H
Class Name: Not met

Changes: I20D
Class Name: Met

Changes: Q52H
Class Name: Met

Changes: N61I
Class Name: Not met

Changes: T33K
Class Name: Met

Changes: Y17C
Class Name: Not met

Changes: K40S
Class Name: Met

Changes: E23D
Class Name: Met

Changes: T6I
Class Name: Not met

Changes: E29F
Class Name: Not met

Changes: F21C
Class Name: Not met

Changes: L34V
Class Name: Not met

Changes: E59V
Class Name: Not met

Changes: I8T
Class Name: Met

Changes: F21V
Class Name: Not met

Changes: I57H
Class Name: Not met

Changes: V26A
Class Name: Not met

Changes: K40G
Class Name: Not met

Changes: I53W
Class Name: Not met

Changes: K10V
Class Name: Not met

Changes: F31L
Class Name: Not met

Changes: A62V
Class Name: Met

Changes: E29N
Class Name: Not met

Changes: E22F
Class Name: Not met

Changes: L5G
Class Name: Not met

Changes: P19S
Class Name: Met

Changes: S58N
Class Name: Met

Changes: D3Q
Class Name: Met

Changes: Q52E
Class Name: Met

Changes: Q52I
Class Name: Not met

Changes: F31N
Class Name: Not met

Changes: T46I
Class Name: Met

Changes: A56N
Class Name: Not met

Changes: F31P
Class Name: Not met

Changes: E15W
Class Name: Not met

Changes: E22D
Class Name: Met

Changes: E15F
Class Name: Not met

Changes: D38C
Class Name: Not met

Changes: T35L
Class Name: Not met

Changes: L54E
Class Name: Not met

Changes: Y17P
Class Name: Not met

Changes: S58R
Class Name: Met

Changes: L39C
Class Name: Not met

Changes: I8C
Class Name: Met

Changes: L32Y
Class Name: Not met

Changes: E23R
Class Name: Met

Changes: K10F
Class Name: Not met

Changes: E25I
Class Name: Not met

Changes: D1F
Class Name: Not met

Changes: E22K
Class Name: Met

Changes: Q51S
Class Name: Met

Changes: E4G
Class Name: Not met

Changes: E29G
Class Name: Met

Changes: L14N
Class Name: Not met

Changes: T35S
Class Name: Met
